All figures here come from patent US20170216360A1.

System: CD11a surface expression on huMSCs
Run Description: Medium throughput screen: CD11a surface expression on MSCs, PE-CY5 anti-CD11a antibody, laser-scanning fluorescence microplate cytometer
Type: cell-based, human
Assay Conditions: pretreatment of huMSCs; read-out: Cell Surface Marker ED 50 (M) Molar Concentration of Compound for CD11a Expression
Assay Endpoint: EC50 (M)
Provide only the numeric value, understood in M.

According to the records, this compound Cn1cc(C2=C(c3c4n(c5ccccc35)CCC(CN)C4)C(=O)NC2=O)c2ccccc21 (stereo not shown) displays EC50 of 2.75e-06

###

Test system: CD11a surface expression on huMSCs
Run Description: Medium throughput screen: CD11a surface expression on MSCs, PE-CY5 anti-CD11a antibody, laser-scanning fluorescence microplate cytometer
Type: cell-based, human
Assay Conditions: pretreatment of huMSCs; hydrochloride; read-out: Cell Surface Marker ED 50 (M) Molar Concentration of Compound for CD11a Expression
Where a name gives a salt, the structure may show the parent alone.
Assay Endpoint: EC50 (M)
Provide only the numeric value, understood in M.

According to the records, this compound Cn1cc(C2=C(c3c4n(c5ccccc35)CCC(CN)C4)C(=O)NC2=O)c2ccccc21 (stereo not shown) [Compound 1929, hydrochloride] displays EC50 of 8e-07
